# maps each entry to its ΔTm at 100 µM
tested target: PD-L1 (Homo sapiens, UniProt Q9NZQ7)
Sequence (Q9NZQ7 18-239): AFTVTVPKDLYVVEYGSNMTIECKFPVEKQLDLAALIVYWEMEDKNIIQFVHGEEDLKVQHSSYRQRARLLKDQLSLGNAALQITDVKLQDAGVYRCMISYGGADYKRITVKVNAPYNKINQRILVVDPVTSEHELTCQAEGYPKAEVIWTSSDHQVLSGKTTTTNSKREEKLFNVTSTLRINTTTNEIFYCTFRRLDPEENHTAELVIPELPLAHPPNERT
experimental details: biochemical
Set-up: gene CD274; ectodomain, PD-L1-long (amino acids 18–239); Differential scanning fluorimetry, melting temperature shift of PD-L1 ectodomain (PD-L1-long)
condition: read-out: DSF (°C)
Numbers only here, please. The scale is °C.

Consider the reported ΔTm at 100 µM for these compounds:
| compound | value unit | ΔTm at 100 µM |
| --- | --- | --- |
| OCc1cccc(-c2ccc3c(c2)OCCO3)c1Cl [TAH4] | °C | 0.5 |
| Nc1c(CO)cccc1-c1ccncc1 [TAH57] | °C | 0.1 |
| Cc1ccc(-c2ccc3c(c2)OCCO3)c(N)c1 [TAH53] | °C | 0.7 |
| Cc1c(CO)cccc1-c1cccc(CO)c1Br [TAH3] | °C | 0.3 |
| Cc1c(/C=C/C#N)cccc1-c1ccc2c(c1)OCCO2 [TAH38] | °C | 0.9 |

Lab note: measured ΔTm at 100 µM of COC(=O)c1cncc(-c2cccc(CO)c2C)c1 [TAH2] was 0.1

Lab note: measured ΔTm at 100 µM of COC(=O)c1cccc(-c2ccccc2)c1Br [TAH9] was 0.5

Lab note: measured ΔTm at 100 µM of CNc1cccc(-c2ccc3c(c2)OCCO3)c1 [TAH56] was 0.1

###

tested target: PD-L1 (Homo sapiens, UniProt Q9NZQ7)
experimental details: biochemical
Parameters: gene CD274; ectodomain, PD-L1-long (amino acids 18–239); Differential scanning fluorimetry, melting temperature shift of PD-L1 ectodomain (PD-L1-long)
condition: read-out: DSF (°C)
For each record, check the reported ΔTm at 100 µM: if it is below 0.3 °C write true, else write false.

Illustrative cases are given below, each with its answer.
| molecule | cat |
| --- | --- |
| Nc1c(Br)cccc1-c1ccc(CO)cc1 [TAH44] | false |
| COc1ccc(-c2cccc(CO)c2N)cc1 [TAH58] | true |
| Cc1c(N)cccc1-c1ccc2c(c1)OCCO2 [TAH16] | false |
| Oc1cccc(-c2cccc(F)c2)c1 [TAH41] | false |
| O=C1CCc2cc(-c3ccc4c(c3)OCCO4)ccc21 [TAH30] | true |

In plain terms, does Cc1c(C#N)cccc1-c1cccc(C#N)c1C [TAH37] come in under 0.3 °C for ΔTm at 100 µM?
true

In plain terms, does Cc1c(CO)cccc1-c1cccc2c1OCCN2C [TAH61] come in under 0.3 °C for ΔTm at 100 µM?
true

In plain terms, does COc1cccc(-c2cccc(O)c2)c1 [TAH14] come in under 0.3 °C for ΔTm at 100 µM?
false
